# assayed-target: telomerase enzyme (Homo sapiens)
# Construct: host or cells: HEKn (human primary epidermal keratinocytes)
# Sequence (O14746 whole entry): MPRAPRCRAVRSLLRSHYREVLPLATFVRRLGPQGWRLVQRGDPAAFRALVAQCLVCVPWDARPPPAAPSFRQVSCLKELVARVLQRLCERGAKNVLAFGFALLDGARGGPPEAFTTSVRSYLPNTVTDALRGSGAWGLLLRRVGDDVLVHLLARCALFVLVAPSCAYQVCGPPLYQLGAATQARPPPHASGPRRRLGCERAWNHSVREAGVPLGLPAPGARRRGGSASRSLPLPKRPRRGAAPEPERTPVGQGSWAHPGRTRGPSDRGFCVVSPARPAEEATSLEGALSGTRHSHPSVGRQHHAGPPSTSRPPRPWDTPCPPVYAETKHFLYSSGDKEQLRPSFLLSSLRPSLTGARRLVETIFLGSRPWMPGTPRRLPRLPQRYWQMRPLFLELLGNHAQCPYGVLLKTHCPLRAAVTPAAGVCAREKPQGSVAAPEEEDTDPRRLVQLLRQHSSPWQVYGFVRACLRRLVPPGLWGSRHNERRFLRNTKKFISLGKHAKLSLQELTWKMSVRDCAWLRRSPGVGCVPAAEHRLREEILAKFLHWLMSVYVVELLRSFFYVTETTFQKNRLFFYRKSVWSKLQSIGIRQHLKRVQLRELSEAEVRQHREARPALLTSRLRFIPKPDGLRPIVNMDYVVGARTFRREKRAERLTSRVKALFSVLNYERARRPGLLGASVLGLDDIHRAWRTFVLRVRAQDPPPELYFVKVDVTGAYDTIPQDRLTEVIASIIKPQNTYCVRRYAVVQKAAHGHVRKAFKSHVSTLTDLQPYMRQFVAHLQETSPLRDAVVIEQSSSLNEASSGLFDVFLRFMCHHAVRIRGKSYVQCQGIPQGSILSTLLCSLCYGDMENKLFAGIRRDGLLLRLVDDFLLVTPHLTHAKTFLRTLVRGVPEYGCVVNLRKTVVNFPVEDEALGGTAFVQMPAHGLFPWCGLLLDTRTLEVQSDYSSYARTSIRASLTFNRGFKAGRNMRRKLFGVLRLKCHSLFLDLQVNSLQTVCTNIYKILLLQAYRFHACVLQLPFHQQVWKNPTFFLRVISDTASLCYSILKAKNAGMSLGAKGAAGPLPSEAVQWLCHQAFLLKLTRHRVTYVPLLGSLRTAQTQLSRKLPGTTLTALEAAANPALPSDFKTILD
# test: Telomerase activation, TELOTAGGG PCR ELISAPLUS kit, HEKn cells
# Assay type: cell-based
# cond: 30 nM, 24-hour incubation
measure-name: Fold increase over negative control (DMSO) (fold)

compound	assayed-target	quantitative-result
CC(C)(O)[C@@H]1CC[C@](C)([C@H]2[C@@H](O)C[C@@]3(C)C4C[C@H](O)C5C(C)(C)[C@@H](O)CC[C@@]56C[C@@]46C[C@H](O)[C@]23C)O1 (some centres unmarked) [Molecule 6]	telomerase enzyme (Homo sapiens)	2.37
C=C(C)[C@@H]1[C@@H](O)CC2C(=CC[C@]3(C)[C@@H]([C@@]4(C)CC[C@@H](C(C)(C)O)O4)[C@@H](O)C[C@@]23C)[C@@]1(C)CCC(=O)O (some centres unmarked) [Molecule 20]	telomerase enzyme (Homo sapiens)	7.86
CC1(C)C(=O)CC[C@]23C[C@]24CC[C@]2(C)[C@@H]([C@@]5(C)CC[C@@H](C(C)(C)O)O5)[C@@H](O)C[C@@]2(C)C4C[C@H](O)C13 (some centres unmarked) [Molecule 12]	telomerase enzyme (Homo sapiens)	0.84

[a] CC1(C)OC(=O)CC[C@]23C[C@]24CC[C@]2(C)[C@@H]([C@@]5(C)CC[C@@H](C(C)(C)O)O5)[C@@H](O)C[C@@]2(C)C4C[C@H](O)C13 (some centres unmarked) [Molecule 10]
[b] CC(C)(O)[C@@H]1CC[C@](C)([C@H]2[C@@H](O)C[C@@]3(C)C4C[C@H](O)[C@@H](C(C)(C)O)[C@@]5(CCC(=O)O)C[C@@]45CC[C@]23C)O1 (some centres unmarked) [Molecule 11]
I would appreciate it if you could say which entry, a or b , has the lower Fold increase over negative control (DMSO) value. Reply with the label of the item you choose.
b

---

# assayed-target: telomerase enzyme (Homo sapiens)
# Construct: host or cells: HEKn (human primary epidermal keratinocytes)
# test: Telomerase activation, TELOTAGGG PCR ELISAPLUS kit, HEKn cells
# Type: cell-based
# cond: 10 nM, 24-hour incubation
measure-name: Fold increase over negative control (DMSO) (fold)

Look over these answered cases.
compound	quantitative-result
CC(C)(O)[C@@H]1CC[C@](C)([C@H]2[C@@H](O)C[C@@]3(C)C4C[C@H](O)C5C(C)(C)[C@@H](O)CC[C@@]56C[C@@]46C[C@@H](O)[C@]23C)O1 (stereo partly shown) [Molecule 4]	2.22
CC1(C)OC(=O)CC[C@]23C[C@]24CC[C@]2(C)[C@@H]([C@@]5(C)CC[C@@H](C(C)(C)O)O5)[C@@H](O)C[C@@]2(C)C4C[C@H](O)C13 (stereo partly shown) [Molecule 10]	9.95

[A] CC(C)(O)[C@@H]1CC[C@](C)([C@H]2[C@@H](O)C[C@@]3(C)C4C[C@H](O)C5C(C)(C)[C@@H](O)CC[C@]5(C)C4=C[C@H](O)[C@]23C)O1 (stereo partly shown) [Molecule 16]
[B] CC(C)(O)[C@@H]1CC[C@](C)([C@H]2[C@@H](O)C[C@@]3(C)C4C[C@H](O)[C@@H](C(C)(C)O)[C@@]5(CCC(=O)O)C[C@@]45CC[C@]23C)O1 (stereo partly shown) [Molecule 11]
Thinking about recorded Fold increase over negative control (DMSO) values, which is higher, A or B ? Reply with the label of the item you choose.
B

These measurements were taken from patent US20210369738A1.
